Data provenance is ChEMBL document CHEMBL5608163.

Tested on: Bacillus subtilis
Assay Explanation: Antibacterial activity against Bacillus subtilis ATCC 23857 assessed as reduction in bacterial growth incubated for 18 hrs by CLSI-based Mueller-Hinton broth dilution method
Assay type: functional
Lab note: anything with MIC below 8 µM is marked Yes; values at 8 µM or higher are marked No.

Q) Hello, I'm reviewing records and need to know if MIC of `CCCCC(=O)NCCCC[C@@H](NC(=O)[C@H](CC(C)C)NC(=O)[C@H](CC(C)C)NC(=O)CN)C(=O)N[C@@H](CCCNC(=N)N)C(=O)N[C@H](C(=O)N[C@H](CCCCN)C(=O)N[C@H](C(=O)N[C@@H](CC(C)C)C(=O)N[C@@H](CC(C)C)C(N)=O)[C@@H](C)O)[C@@H](C)CC` is below 8 µM. Could you check?
A) No

Q) For `CCCCC(=O)NCCCC[C@@H](NC(=O)[C@@H](NC(=O)[C@H](CCCNC(=N)N)NC(=O)[C@@H](CCCCN)NC(=O)[C@H](CC(C)C)NC(=O)[C@H](CC(C)C)NC(=O)CN)[C@@H](C)CC)C(=O)N[C@H](C(=O)N[C@@H](CC(C)C)C(=O)N[C@@H](CC(C)C)C(N)=O)[C@@H](C)O` , is the recorded MIC below the cut-off of 8 µM?
A) No

Q) Decide: MIC of `CCCCCCC(=O)NCCCC[C@@H](NC(=O)[C@H](CC(C)C)NC(=O)[C@H](CC(C)C)NC(=O)CN)C(=O)N[C@@H](CCCNC(=N)N)C(=O)N[C@H](C(=O)N[C@H](CCCCN)C(=O)N[C@H](C(=O)N[C@@H](CC(C)C)C(=O)N[C@@H](CC(C)C)C(N)=O)[C@@H](C)O)[C@@H](C)CC` strictly below 8 µM?
A) No

Further cases:
Q) Please indicate whether the reported MIC of `CCCCCCCCCCCCC(=O)NCCCC[C@@H](NC(=O)[C@H](CC(C)C)NC(=O)[C@H](CC(C)C)NC(=O)CN)C(=O)N[C@@H](CCCNC(=N)N)C(=O)N[C@H](C(=O)N[C@H](CCCCN)C(=O)N[C@H](C(=O)N[C@@H](CC(C)C)C(=O)N[C@@H](CC(C)C)C(N)=O)[C@@H](C)O)[C@@H](C)CC` is strictly below 8 µM.
A) Yes

Q) Take the compound `CCCCCCCCC(=O)NCCCC[C@@H](NC(=O)[C@H](CC(C)C)NC(=O)[C@H](CC(C)C)NC(=O)CN)C(=O)N[C@@H](CCCNC(=N)N)C(=O)N[C@H](C(=O)N[C@H](CCCCN)C(=O)N[C@H](C(=O)N[C@@H](CC(C)C)C(=O)N[C@@H](CC(C)C)C(N)=O)[C@@H](C)O)[C@@H](C)CC` and say whether its MIC is less than 8 µM.
A) Yes
